Listing of recorded Herbicidal activity, SETFA by entry.
System: warm season plant species
Method Description: B2 Post-emergence efficacy Test 2, warm season plant species
Type: in vivo
Setup Conditions: Setaria faberi, 30 g/Ha, 15 days after application, 0-100 scale, 0=no damage, 100=total kill
Reply with the value as a number alone.

{"Compound": "Cc1nn(C)c(=O)c(-c2c(F)ccc(Cl)c2CCc2ccccc2C(F)(F)F)c1O [Compound 1.066]", "Herbicidal activity, SETFA": 70}
{"Compound": "Cc1nn(C)c(=O)c(-c2c(F)ccc(Cl)c2CCc2ccc(F)cc2)c1OC(=O)C(C)C [Compound 1.125]", "Herbicidal activity, SETFA": 10}

[in] State the recorded Herbicidal activity, SETFA for this entry: Cc1nn(C)c(=O)c(-c2c(F)ccc(Cl)c2CCc2ccc(Cl)cc2)c1OC(=O)C(C)C [Compound 1.089]
[out] 20

[in] Likewise for Cc1nn(C)c(=O)c(-c2c(F)ccc(Cl)c2CCc2ccc(C#N)cc2)c1O [Compound 1.024] ?
[out] 70

[in] Further, for Cc1nn(C)c(=O)c(-c2c(F)ccc(Cl)c2CCc2ccc(F)cc2)c1O [Compound 1.048] ?
[out] 40
